- System: DDR1
- setup_conditions: concentration: 1 μM, replicates: in singlicate; n = 1;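 note: KINOMEscan kinase panel screen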
assay_endpoint: %Inh

Q: Form field - read-out: %Inh; system: DDR1; submitted item: Nc1ncnc2c1ncn2-c1ccc(Cl)cc1
A: 0%

Q: Consider next the molecule Cc1nc(N(C)[C@H]2CN(C(=O)CC#N)CC[C@H]2C)c2cc[nH]c2n1 in the same way.
A: 28%

Q: Consider next the molecule CCC(=O)c1c(-c2ccccc2)c2cc(Cl)ccc2c(=O)n1Cc1cc(S(C)(=O)=O)n(CC(N)=O)n1 in the same way.
A: 0%

Q: Consider next the molecule COc1cc2nccc(Nc3cccc(Oc4ccccc4)c3)c2cc1OC.Cl in the same way.
A: 17%

Q: Consider next the molecule C[C@@H]1CC[C@H](C(=O)NC2CCCCC2)CN1c1cc(-c2ccc3c(N)n[nH]c3c2)nc(N)n1 in the same way.
A: 0%

Q: Consider next the molecule COc1cc2ncn(-c3cc(OCc4ccncc4)c(C(N)=O)s3)c2cc1OC in the same way.
A: 0%

Q: Consider next the molecule COc1ccc(-c2coc3ccc(-c4nnc(SCc5cccc(C#N)c5)o4)cc23)cc1 in the same way.
A: 0%

Q: Consider next the molecule COc1ccc(-c2cc3c(C)nc(N)nc3n([C@H]3CC[C@H](OCCO)CC3)c2=O)cn1 in the same way.
A: 0%

Q: Consider next the molecule O=c1cc(N2CCOCC2)nc2n(Cc3ccc(F)c(Cl)c3)ccn12 in the same way.
A: 10%

----------
- Test system: AURKA
- setup_conditions: concentration: 1 μM, replicates: in singlicate; n = 1
Mark 1 (yes) for reported %Inh of 20% or greater; mark 0 (no) for anything smaller.

Q: In plain terms: is recorded %Inh at least 20% for CCC(=O)c1c(-c2ccccc2)c2cc(Cl)ccc2c(=O)n1Cc1cc(C(=O)NC2CC2)n(C)n1 ?
A: 1 (yes)

Q: Consider next the molecule OCCCNc1nccc(-c2c(-c3cccc(C(F)(F)F)c3)nn3cc(C(F)(F)F)ccc23)n1 [GW630813] in the same way.
A: 0 (no)

Q: Consider next the molecule O=C(Nc1ccc2c(c1)OCO2)NC1CCN(c2ccnc(NCc3ccc(F)cc3)n2)CC1 [GSK1379859] in the same way.
A: 0 (no)

Q: Consider next the molecule COc1ccc(-c2cc3c(C)nc(N)nc3n([C@H]3CC[C@H](OCCO)CC3)c2=O)cn1 in the same way.
A: 0 (no)

Q: Consider next the molecule COc1cc(Nc2nccc(N3CCC(NC(=O)C4COc5ccccc5O4)C3)n2)cc(OC)c1OC (stereo not shown) [GSK1379761] in the same way.
A: 1 (yes)

Q: Consider next the molecule Cn1c(=O)c(F)c(Nc2ccc(I)cc2F)c2c(=O)n(OC[C@H](O)CO)cnc21 in the same way.
A: 0 (no)

Q: Consider next the molecule FC(F)(F)c1ccc(-c2ncn(CCCN3CCOCC3)c2-c2ccncc2)cc1 [SB-217780] in the same way.
A: 0 (no)

Q: Consider next the molecule CCc1ccc(-c2ccc3c(c2)-c2nn(C)cc2S(=O)(=O)N3C)cc1 in the same way.
A: 0 (no)

Q: Consider next the molecule O=C(Nc1n[nH]c2nc(-c3ccccc3)c(Cl)cc12)C1CC1 [SB-734909] in the same way.
A: 1 (yes)

Q: Consider next the molecule Nc1n[nH]c2nnc(-c3ccccc3)c(-c3ccccc3)c12 [GW554060] in the same way.
A: 0 (no)
